The reported numbers originate from paper PMC9217908.

Each entry below carries its reported inhibition at 200 µM.
target: CAT1 (cationic amino acid transporter 1, CAT1/SLC7A1) (Homo sapiens); construct: full-length human transporter stably transfected in HEK cells (HEK-CAT1); net uptake against HEK-VC vector control cells; assay: cell-based; design: species or system HEK-CAT1 (HEK293 stably transfected); Inhibition of net CAT1-mediated [3H]-ADMA (1 uM) uptake, 2.5 min, scintillation counting, vector control subtracted; settings: HEK293; ADMA 1 uM as substrate; read-out: % Inhibition of ADMA uptake at 200 µM
Sequence (P30825 whole entry): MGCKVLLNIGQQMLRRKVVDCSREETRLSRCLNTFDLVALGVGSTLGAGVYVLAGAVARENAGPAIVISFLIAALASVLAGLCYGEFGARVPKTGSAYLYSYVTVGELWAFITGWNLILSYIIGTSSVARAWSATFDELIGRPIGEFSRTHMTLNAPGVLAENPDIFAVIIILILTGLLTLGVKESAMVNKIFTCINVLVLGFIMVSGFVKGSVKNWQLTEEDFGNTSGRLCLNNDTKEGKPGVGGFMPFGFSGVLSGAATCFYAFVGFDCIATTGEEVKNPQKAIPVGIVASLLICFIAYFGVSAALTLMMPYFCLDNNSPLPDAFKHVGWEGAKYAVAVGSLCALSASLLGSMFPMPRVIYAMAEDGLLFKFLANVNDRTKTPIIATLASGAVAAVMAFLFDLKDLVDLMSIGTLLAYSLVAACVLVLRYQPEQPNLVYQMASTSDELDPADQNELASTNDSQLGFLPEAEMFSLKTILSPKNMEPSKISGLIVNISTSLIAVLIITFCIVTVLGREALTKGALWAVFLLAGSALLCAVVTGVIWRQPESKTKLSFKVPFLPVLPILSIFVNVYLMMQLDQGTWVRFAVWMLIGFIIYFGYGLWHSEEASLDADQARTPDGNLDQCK
Provide only the numeric value, understood in %.

These solved cases illustrate the format of a correct answer.
INSERT INTO measurements (compound, quantitative_result) VALUES
  ('NS(=O)(=O)c1cc2c(cc1Cl)NCNS2(=O)=O [Hydrochlorothiazide]', 9.9),
  ('NCCCC[C@H](N[C@@H](CCc1ccccc1)C(=O)O)C(=O)N1CCC[C@H]1C(=O)O [Lisinopril]', 15.7),
  ('CNCC[C@H](Oc1cccc2ccccc12)c1cccs1 [Duloxetine]', -14.2),
  ('CNCCC(Oc1ccc(C(F)(F)F)cc1)c1ccccc1 (centres unmarked) [Fluoxetine]', -18.8),
  ('CN(C)CCCC1(c2ccc(F)cc2)OCc2cc(C#N)ccc21 (centres unmarked) [Citalopram]', -15.6),
  ('CC1(C)S[C@@H]2[C@H](NC(=O)[C@H](N)c3ccccc3)C(=O)N2[C@H]1C(=O)O [Ampicillin]', -4.1);

Param item = CCOC(=O)[C@H](CCc1ccccc1)N[C@@H](C)C(=O)N1CCC[C@H]1C(=O)O [Enalapril] ; retrieve measured inhibition at 200 µM. 5.3

Would you kindly share the measured inhibition at 200 µM for C#C[C@]1(O)CC[C@H]2[C@@H]3CCc4cc(O)ccc4[C@H]3CC[C@@]21C [Ethinylestradiol] ? -35.3

###

Parameter inhibition at 200 µM: see the listing below.
Target: CAT1 (cationic amino acid transporter 1, CAT1/SLC7A1) (Homo sapiens)
Construct: full-length human transporter stably transfected in HEK cells (HEK-CAT1); net uptake against HEK-VC vector control cells
Assay: cell-based
Design: species or system HEK-CAT1 (HEK293 stably transfected); Inhibition of net CAT1-mediated [3H]-ADMA (1 uM) uptake, 2.5 min, scintillation counting, vector control subtracted
Conditions: HEK293; ADMA 1 uM as substrate; read-out: % Inhibition of ADMA uptake at 200 µM
Protocol: Uptake and inhibition assays using HEK-CAT1 and HEK-VC cells and L-arginine, L-homoarginine, and ADMA as substrates were performed using the protocol described (Strobel et al. [2012]; Chafai et al. [2017]). […] The net uptake was determined by subtracting the total amount taken up by control cells from the amount taken up by CAT1-expressing cells, which was expressed as a percentage of the amount taken up by the control. […]
The reply should be a number in %, with the unit left off.

Please review the entries below; each comes with its answer.
INSERT INTO measurements (compound, observation_type, quantitative_result) VALUES
  ('C[C@@H](O)[C@H]1C(=O)N2C(C(=O)O)=C(S[C@@H]3CN[C@H](C(=O)N(C)C)C3)[C@H](C)[C@H]12', 'inhibition at 200 µM', 12.1),
  ('CNC(=C[N+](=O)[O-])NCCSCc1ccc(CN(C)C)o1', 'inhibition at 200 µM', 6.1);

Let's switch to this compound now.
What value of inhibition at 200 µM has been reported for the following compound? CN(C)C(=O)C(CCN1CCC(O)(c2ccc(Cl)cc2)CC1)(c1ccccc1)c1ccccc1 [Loperamide] 1.4
